Test Protocol: fission yeast growth modulation, primary screen, strain 972, OD600, 24 h, no modulator (AID 1090);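 further: basal condition with compound alone and no growth modifier present; test concentration not given here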
Assay Context: S. pombe 972 growth, higher = more signal, called active from +8 up or from −8 down
Calls of active or inactive are those of the source.
Collected z-score values appear next to each entry.

# annotated cases, reported z-score shown
CC1C2C(CCCO)=CC(C3C(=O)N(C(N)=O)C(=O)C23)N1Cc1cccc(OC(F)(F)F)c1 (configuration not stated) ... -0.198 (inactive)
C=C(COC)/C(=C/C[C@@H](OC(C)=O)c1cccc(OCCO)c1)c1cnc2ccccc2c1 ... -6.62 (inactive)
CN1C(=O)C2C=CC(C(O)c3cccs3)N(N(c3ccccc3)c3ccccc3)C2C1=O (configuration not stated) ... 0.881 (inactive)
C=C(CCCC)/C(=C/C[C@@H](OC(C)=O)c1cccc(OCCO)c1)c1cc(C(=O)OC)ccc1OC ... 0.86 (inactive)

INPUT: // returns reported z-score for input COc1ccc([Si](C)(C)[C@H]2[C@H](CC(=O)N(CCO)Cc3ccccc3)O[C@@]3(C(=O)N(Cc4ccc(N5C(=O)c6cccc7cccc5c67)cc4)c4ccccc43)[C@@H]2C)cc1
OUTPUT: 0.685 (inactive)

INPUT: // returns reported z-score for input CCOC(=O)C[C@H]1[C@H](OC(=O)c2cc3ccccc3oc2=O)[C@@H](NC(=O)c2ccc(-c3ccccc3)cc2)c2cc(OCCCO)ccc2N1C(=O)Cc1ccc(OC)cc1
OUTPUT: -0.398 (inactive)

INPUT: // returns reported z-score for input CCCCCN1CC=CC23O[C@@H]4/C=C\CCCOC(=O)C4[C@H]2C(=O)N(CCO)[C@@H]3C1=O (some centres not stated)
OUTPUT: -1.15 (inactive)
